All figures here come from PubChem BioAssay (NCI).

System: MOLT-4 leukemia
Experiment: NCI-60 one-dose screen, 48 h (100 = growth as untreated, 0 = no growth, -100 = all killed)
Conditions: 10 µM unless noted
About 83,000 compounds went through this panel and 20% of them were active in at least one assay; those are over-represented in the sample as a whole.
Recorded growth values for a group of compounds are listed next.
Your answer should be a plain number; it is taken to be in %.

Check out these entries, answers already filled in.
CCc1c(C)c2ccc(OCC(=O)N=Nc3c(O)[nH]c4ccccc34)c(C)c2oc1=O yielded growth of 8.66

COc1cc(N2C(=O)C=CC2=O)ccc1N1C(=O)C=CC1=O yielded growth of 100

O=C(Nc1cccc(Cn2c(=O)[nH]c3ccc(Oc4ncccn4)cc3c2=O)c1)c1cc(Cl)cc(Cl)c1 yielded growth of 63.8

Next item in the queue.
CCCCCCCCCCC1OC(C)CC(C)O1 (centres undefined) yielded growth of 86.7

###

System: MDA-MB-435 melanoma
Test: NCI-60 one-dose screen, 48 h
Settings: 10 µM unless noted
The panel holds about 83,000 compounds, 20% with a hit somewhere; the sample as a whole holds those more often. Activity calls are given as the source filed them. The calls were made as follows: active = growth percent below 10; inactive = the rest.
Form entry, call: pick from Y = active, N = inactive

These solved cases illustrate the format of a correct answer.
Call for entry O=C(Nc1ccc(Cl)cn1)C1(c2ccccc2)CCCCC1 :
N

Call for entry COc1ccc(/C=C(/C(=O)N2CCCCC2)c2cc(OC)c(OC)c(OC)c2)cc1 :
Y

Call for entry COc1cc(OC)cc(-c2ccc(-c3ccc(C(=N)N)cc3)s2)c1 :
Y

Call for entry Cc1ccc2c(O)c(O)cc(NC(C)CCCN)c2n1 (configuration not stated) :
N

Call for entry CCOP1(=O)CC(C)=C(Cl)C(P(=O)(O)O)C1 (configuration not stated) :
N

More entries:
Call for entry COc1cc(OC)c(/C=C/c2ccc3ccccc3[n+]2C)c(OC)c1 :
Y

Call for entry Cc1c(Cc2ccccc2)c(=O)oc2c(C)c(OCc3n[nH]c(=S)o3)ccc12 :
N

Call for entry CC1=C(C)C(=O)C(C(C)C2=C(C)C(=O)C(C)=C(C)C2=O)=C(C)C1=O :
N

Call for entry Nc1ccc(S(=O)(=O)Nc2cc(F)cc(F)c2)cc1 :
N

Call for entry CC(C)OC(=O)Nn1cnc2ccccc21 :
N

Call for entry COC(=O)[C@H](Cc1cn(C)cn1)NC(=O)[C@H](Cc1c[nH]c2ccccc12)NC(=O)Nc1cc(C(F)(F)F)cc(C(F)(F)F)c1 :
Y

Call for entry CCC(C)C1NC(=O)C(CC(C)C)NC(=O)C(C)NC(=O)C(C(C)C)NC(=O)C(CCCCN)NC(=O)C(CC(C)C)NC(=O)C(C(C)C)NC(=O)[C@H](C)NC(=O)C(C(C)CC)NC(=O)C(CCCN=C(N)N)NC(=O)C(CCCCN)NC(=O)C(CCCN=C(N)N)NC(=O)C(CCCCN)NC(=O)C([C@H](C)CC)NC(=O)C(CCCCN)NC1=O (some centres not stated) :
N

Call for entry CCc1ccc(C(=Nc2ccc(N(C)C(=O)CN3CCN(C)CC3)cc2)c2c(O)[nH]c3ccc(C(=O)OC)cc23)cc1 :
Y

Call for entry CC(=O)OC1CC2C3CCC4C[C@@H](NC(=O)C=C(C)C)CC[C@]4(C)C3CC[C@]2(C)[C@H]1C(C)N(C)C (some centres not stated) :
Y

Call for entry O=C(NCCCl)Nc1nccnc1OCc1ccc(F)cc1 :
N

Call for entry CC(C)(C)C(=O)OCOP(=O)(OCOC(=O)C(C)(C)C)C1CC(O)N(O)C1=O (configuration not stated) :
N

Call for entry COc1cc2c(c3c1c(=O)c1cccc(F)c1n3C)C=CC(C)(C)O2 :
N

Call for entry CC(=O)Nc1nc(C)c(C(=O)N/N=C/N2CCOCC2)s1 :
N

Call for entry C/C=C(/C)C(=O)OC1C=C(CO)C(=O)C(OC(=O)C2(C)OC2C)C1C(C)C (configuration not stated) :
Y

Call for entry Cn1c2c(cc(S(=O)(=O)c3ccccc3)c1=O)CCc1c-2cnn1-c1ccc(Cl)cc1 :
N

Call for entry C#CCCCCCCC[C@@H]1OC(=O)[C@H]([C@@H](C)CC)NC(=O)[C@@H]([C@@H](C)CC)NC(=O)CC(=O)[C@@H]1C :
N

Call for entry O=C(OCC1CC2(Cl)C(Cl)=C(Cl)C1(Cl)C2(Cl)Cl)C1C(C(=O)OCC2CC3(Cl)C(Cl)=C(Cl)C2(Cl)C3(Cl)Cl)C2(Cl)C(Cl)=C(Cl)C1(Cl)C2(Cl)Cl (configuration not stated) :
N

Call for entry Cc1ccc(OCCn2ccc(=O)n(CCOc3ccc(Cl)cc3C(=O)c3cc(C)cc(C)c3)c2=O)cc1 :
Y

Call for entry CC1=NN(c2cccc(Cl)c2)C(=O)/C1=C\c1cn(-c2nc(N3CCOCC3)nc(N3CCOCC3)n2)c2ccccc12 :
N

Call for entry Cc1ccnc2c(NC(C)CCCN)cc(O)c(O)c12 (configuration not stated) :
N

Call for entry O=C(CCl)NC1c2ccccc2Oc2ccccc21 :
N

Call for entry Cc1sc(NC(=O)c2ccc(C(C)(C)C)cc2)c(C(=O)O)c1C :
N

###

System: NCI-H226 lung
Experiment: NCI-60 one-dose screen, 48 h (100 = growth as untreated, 0 = no growth, -100 = all killed)
Conditions: 10 µM unless noted
This is part of a sample that, as a whole, favours compounds with a hit. Of some 83,000 tested, about 20% had one in any assay.
METRIC NAME: growth (%)
Your answer should be a plain number; it is taken to be in %.

Check out these entries, answers already filled in.
CCOC(=O)C1C(=O)C(=O)N(C(C)C)C1C(=O)OCC (stereo unspecified) yielded growth of 100

CCS(=O)(=O)N[C@@H]1O[C@H](COC(C)=O)C(OC(C)=O)[C@H](OC(C)=O)C1OC(C)=O (stereo partly specified) yielded growth of 109

Cc1nnc(/N=C2\NC(=O)/C(=C/C=C/c3ccccc3)S2)s1 yielded growth of 78

CCN(CC)CCNc1ncnc2c1cnn2-c1ccc(Cl)cc1 yielded growth of 100

O=C1CCNC1 yielded growth of 103

CCOC(=O)c1c(C)oc2ncnc(Nc3ccc(NC(=O)Nc4cccc(Cl)c4)cc3)c12 yielded growth of 54.8

More entries:
O=C(CN1C(=O)NC(c2ccccc2)(c2ccccc2)C1=O)c1ccc(N2CCCC2)cc1 yielded growth of 90.7

C/C(=N\Nc1ccc(Cl)cn1)c1ccccn1 yielded growth of -8.37

COC(=O)c1ccc2[nH]c(O)c(C(=Nc3ccc(N(C)C(=O)CN4CCN(C)CC4)cc3)c3ccc4c(c3)OCO4)c2c1 yielded growth of 23.3

COc1cc(Cn2ccc3c2-c2oncc2CC3)cc(OC)c1 yielded growth of 67.4

O=C1NCCN1/N=C/c1c(Cl)nc2n1CCS2 yielded growth of 151

###

Test system: UO-31 renal
Assay: NCI-60 one-dose screen, 48 h (100 = growth as untreated, 0 = no growth, -100 = all killed)
Conditions: 10 µM unless noted
This is part of a sample that, as a whole, favours compounds with a hit. Of some 83,000 tested, about 20% had one in any assay. The source made the active and inactive calls. How the source made its calls: active means growth percent below 10; inactive means the rest.
METRIC NAME: growth

Check out these entries, answers already filled in.
GET /values?item= Oc1ccc([S+](c2ccc(O)cc2)c2ccc(O)cc2)cc1 &system= UO-31 renal returns growth: 87.5% (inactive)

GET /values?item= CC(C)(CNC1CCCCC1)OC(=O)c1ccccc1 &system= UO-31 renal returns growth: 77.2% (inactive)

GET /values?item= CCNc1nnc(COc2ccc(CNC(=O)CCCC/C=C/C(C)C)cc2OC)o1 &system= UO-31 renal returns growth: 84.2% (inactive)

More entries:
GET /values?item= CC(C)CSc1nc(-c2ccc(F)cc2)c(C#N)c(N2CCCCC2)n1 &system= UO-31 renal returns growth: 95.3% (inactive)

GET /values?item= O=C(NCCO)C(F)(F)F &system= UO-31 renal returns growth: 94.2% (inactive)

GET /values?item= O=S(=O)(Cc1cccc2c(CS(=O)(=O)c3ccc(Cl)cc3)cccc12)c1ccc(Cl)cc1 &system= UO-31 renal returns growth: 106% (inactive)

GET /values?item= O=C1Nc2ccccc2/C1=C/c1cn(CC(O)Cn2cc(/C=C3\C(=O)Nc4ccccc43)c3ccccc32)c2ccccc12 (configuration not stated) &system= UO-31 renal returns growth: -9.18% (active)

###

Tested on: OVCAR-5 ovarian
Assay: NCI-60 one-dose screen, 48 h (100 = growth as untreated, 0 = no growth, -100 = all killed)
Conditions: 10 µM unless noted
Compounds without any hit were thinned out: in the full panel of roughly 83,000, 20% have a hit.
METRIC NAME: growth (%)
Your answer should be a plain number; it is taken to be in %.

Check out these entries, answers already filled in.
CCCCCCCCCCCCCCCCNC(=S)N/N=C/c1ccc(O)cc1O yielded growth of 95.3

O=C(/C(Br)=C/c1ccccc1)c1ccccc1 yielded growth of 58.3

COc1nc(OC)nc(-c2cc(-c3cc(OC)c(OC)c(OC)c3)no2)n1 yielded growth of 115

C/C(=N\Nc1ccc(Cl)cn1)c1ccccn1 yielded growth of 23.1

CCCCCCCCCCC(C[N+](C)(C)C/C=C/c1ccccc1)C(O)c1ccccc1 (stereo unspecified) yielded growth of 42.6

More entries:
O=C(c1ccccc1)c1ccccc1-c1ccccc1 yielded growth of 52.6
